Test Method Notes: Aqueous solubility of APD125
Assay type: physicochemical
Applied Conditions: deionized water, water

Compound: COc1ccc(NC(=O)Nc2ccc(F)cc2F)cc1-c1c(Br)cnn1C [APD125]
solubility: ≤ 10 µg/mL

These data points were gathered from patent US9801856B2.
